- experimentalProtocol: Probe fluorescence ratio response to linolenic acid relative to ADIFAB2
- Type: binding
- conditions: response relative to ADIFAB2
measuredParameter: DR/DR LNA
No unit in the answer, please; the number alone is enough.

Inquiry: // Input: 70W, 72A (protein, listed as Rattus norvegicus, PEPTIDE (1)...(131) wild-type rat intestinal fatty acid binding protein) AFDGTWKVDRNENYEKFMEKMGINVVKRKLGAHDNLKLTITQEGNKFTVKESSNFRNIDVVFELGVDFAWSAADGTELTGTWTMEGNKLVGKFKRVDNGKELIAVREISGNELIQTYTYEGVEAKRIFKKE . Output its DR/DR LNA only.
Reply text: 0.385

Inquiry: // Input: 38M 72G 117F (protein, listed as Rattus norvegicus, PEPTIDE (1)...(131) wild-type rat intestinal fatty acid binding protein) AFDGTWKVDRNENYEKFMEKMGINVVKRKLGAHDNLKMTITQEGNKFTVKESSNFRNIDVVFELGVDFAYSGADGTELTGTWTMEGNKLVGKFKRVDNGKELIAVREISGNELIQTFTYEGVEAKRIFKKE . Output its DR/DR LNA only.
Reply text: 0.733

Inquiry: // Input: 115D1, 72A (protein, listed as Rattus norvegicus, PEPTIDE (1)...(131) wild-type rat intestinal fatty acid binding protein) AFDGTWKVDRNENYEKFMEKMGINVVKRKLGAHDNLKLTITQEGNKFTVKESSNFRNIDVVFELGVDFAYSAADGTELTGTWTMEGNKLVGKFKRVDNGKELIAVREISGNELIDTYTYEGVEAKRIFKKE . Output its DR/DR LNA only.
Reply text: 1.20

Inquiry: // Input: 126D, 72A (protein, listed as Rattus norvegicus, PEPTIDE (1)...(131) wild-type rat intestinal fatty acid binding protein) AFDGTWKVDRNENYEKFMEKMGINVVKRKLGAHDNLKLTITQEGNKFTVKESSNFRNIDVVFELGVDFAYSAADGTELTGTWTMEGNKLVGKFKRVDNGKELIAVREISGNELIQTYTYEGVEAKDIFKKE . Output its DR/DR LNA only.
Reply text: 0.56

Inquiry: // Input: 38Y 62W 117A 72A (protein, listed as Rattus norvegicus, PEPTIDE (1)...(131) wild-type rat intestinal fatty acid binding protein) AFDGTWKVDRNENYEKFMEKMGINVVKRKLGAHDNLKYTITQEGNKFTVKESSNFRNIDVVWELGVDFAYSAADGTELTGTWTMEGNKLVGKFKRVDNGKELIAVREISGNELIQTATYEGVEAKRIFKKE . Output its DR/DR LNA only.
Reply text: 1.237

Inquiry: // Input: 38Y 72G 117M (protein, listed as Rattus norvegicus, PEPTIDE (1)...(131) wild-type rat intestinal fatty acid binding protein) AFDGTWKVDRNENYEKFMEKMGINVVKRKLGAHDNLKYTITQEGNKFTVKESSNFRNIDVVFELGVDFAYSGADGTELTGTWTMEGNKLVGKFKRVDNGKELIAVREISGNELIQTMTYEGVEAKRIFKKE . Output its DR/DR LNA only.
Reply text: 1.228
